target: MAP1LC3A, Q9H492; experiment: median log2 fold change of GCK-ALFA target abundance (FLAG IP / Myc IP barcode read proportion) (log2 ratio); each designed protein is fused to an ALFA-tag nanobody in HEK293 cells to bring the named protein to FLAG-tagged glucokinase (GCK); Myc marks an untargeted standard; higher = target protein stabilised (more abundant); conditions: target protein: 3xFLAG-MCP-GCK-ALFA reporter; HEK293 landing pad (RPLP)
The full ranking holds about 2,300 sequences; the median of “median log2 fold change of GCK-ALFA target abundance (FLAG IP / Myc IP barcode read proportion)” is about 0.095, and the lowest 2% start at about -0.47. Only a selection was taken, and the lowest values are over-represented in it overall.
Reported median log2 fold change values for the following binders.
Number, no unit, nothing else.

Binder	Measured
LC3A_17_555 (protein) MEELKKELEELLKELEKLVKELEKYDPEAAKKLKEKLKEAKKALEKGDLKKALKILKEVAEEAAEVFDSLEHIDPELMSILSMEAEGLLIEALSLEEKLE	-0.476
LC3A_3_1549 (protein) MEELLEETLKRLKEAGASEEVIEAVRKALQALIDRGYEEALKEFAREVEELIGLPDEILLDFAEEVLRAIEEEDLNEEELIERIKEIATIAKNEGEIIEL	0.258

Request: Which median log2 fold change reading was recorded for the binder LC3A_28_654 (protein) EEVEKELKEALKEAEEAKKKKEPAVITIKVSGKVNEEELKKILETLEKIAELLKDIKGSAIIIDLDKDVKEEFKNKLIDKAEELEKKYPNVTVIIALEER ?
Response: 0.153

Request: // lookup median log2 fold change for LC3A_free_39_2183 (protein) SSEETKKLKEELLKLAEEEGEETKELAEKLIELIGEELERIKRLLELMKKLKEAGVDLKEALKEALELAEELKKKGKSKEEIAEAVLELMQDKYNLIPID
Response: 0.066
